- System: K4 kissing-loop RNA reporter;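 further: bound reporter read as fluorescence of individual clusters on recovered sequencing chips by microscopy, with normalized cluster intensities fitted with a binding model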
- Protocol: apparent KD of K4 kissing-loop reporter; higher = weaker reporter binding
- Assay Conditions: Eterna round: R107; input ligand: tryptophan 2.4 mM
Collected apparent KD of K4 kissing-loop reporter values appear next to each entry.
A number alone suffices; assume nM.

[
  {
    "Sequence Content": "AGUUCAGAGUGACUCGAUAAGAGUCACAAACGAGGACCGGUACGGCCGCCACUCGAAAUAACGAGAGUGAUGUUCUCGCUGGGCA [FiskerMod 2 - Jieux - Same State Tryptophan A]",
    "apparent KD of K4 kissing-loop reporter / nM": 244
  }
]

Record for AGCGGCCAGUCGGCCGCCACUCCAGGCAGUGAUGUUGCGAAGUUUCUACUAGAGUGAUGUUCUAAGAGGACCGGGACUGACGUAA [Exclusion Tryptophan B Gf 9] under target or system K4 kissing-loop RNA reporter: apparent KD of K4 kissing-loop reporter reported as 199

The reported K4 kissing-loop RNA reporter apparent KD of K4 kissing-loop reporter of UACUAUAGUGAUGUUAUAGAUAAACCAGAUACCAGUGUAACAUAACACCCUUGGCAGCUGAUGAGGGAAGUUAUCAAAAGAUAAC [AstroSTH-A#10designED4.80] is 198

K4 kissing-loop RNA reporter assay, sequence CUUGGUCUACGAAGGAGCGCCGUGCAGUGAUGUUGCAGUCAGAUCGAGUGAUGUUUCGGGCGGCAGGUAGGUCGCGUGGCCCUUU [Excusion Arginine B GF 26] , recorded apparent KD of K4 kissing-loop reporter = 579

Considering GCCUGUGCGCGAAGGAGCGCCGUGACAGGUUACUGCCUUGGGCAGUGAUGUUGCUCAAUCUGGCAGGUAGGUCGCGUGCACAGGC , its apparent KD of K4 kissing-loop reporter with K4 kissing-loop RNA reporter was recorded as 192

Record for AAUGUACAGGGAAGGAGCGUCGUCCAGUGAUGUUGGAGUUAAAUACCAGUGAUGUUGGUUAGGCAGGUAGGUCGCCCUAAAGUAG [#09 K4 Arginine B Exclusion] under target or system K4 kissing-loop RNA reporter: apparent KD of K4 kissing-loop reporter reported as 82.1
